Tested on: LC5-RIC cells
Assay: CellTiter-Glo 2.0 cell viability assay in LC5-RIC cells
Assay type: cell-based

{"CPD_SMILES": "COc1oc([C@H]2C/C(=C/C(C)=C/c3ccc([N+](=O)[O-])cc3)CO2)c(C)c(=O)c1C", "CC50": "> 10 µM"}

###

System: HIV-1LAI
Test: Inhibition of HIV infection of human PBMCs (infectious virus production, read out on LC5-RIC cells)
Type: cell-based
Conditions: Human immunodeficiency virus 1; Table S2; PBMC; mean ± SD; read-out: Anti-HIV in PBMC; IC50
pIC50: −log10 of the molar value.

{"CPD_SMILES": "CN1CC[C@H](c2c(O)cc(O)c3c(=O)cc(-c4ccccc4Cl)oc23)[C@H](O)C1", "ASSAY_TARGET": "HIV-1LAI", "pIC50": 7.45}
